tested on: lung HOP-62; assay: COMPARE screening (NCI human cancer cell line screen), cytotoxicity GI50; format: cell-based
For each of the compounds below, state its GI50.

Past entries and their recorded results:
{"compound": "COc1ccc2c(c1)C(=O)c1c-2n(CCCN(C)C)c(=O)c2ccccc12 [Compound 5bq]", "system-tested": "lung HOP-62", "GI50": "0.078 µM"}
{"compound": "CC(C)(C)OC(=O)NCCCCCCCCCCn1c2c(c3ccccc3c1=O)C(=O)c1ccccc1-2 [Compound 5ai]", "system-tested": "lung HOP-62", "GI50": "28.8 µM"}
{"compound": "COc1cc2c3c(n(CCCN4CCC(N)CC4)c(=O)c2cc1OC)-c1cc2c(cc1C3=O)OCO2.Cl.Cl [Compound 5u, Dihydrochloride]", "system-tested": "lung HOP-62", "GI50": "0.427 µM"}
{"compound": "COc1cc2c3c(n(CCCN4CCN(CCO)CC4)c(=O)c2cc1OC)-c1cc2c(cc1C3=O)OCO2 [Compound 5w]", "system-tested": "lung HOP-62", "GI50": "9.77 µM"}
{"compound": "Cl.NCCCn1c2c(c3ccccc3c1=O)C(=O)c1ccccc1-2 [Compound 5am]", "system-tested": "lung HOP-62", "GI50": "0.2 µM"}

Please go through the list and note GI50 for each compound.
1. O=C(O)C(F)(F)F.O=C(O)C(F)(F)F.O=C1c2ccccc2-c2c1c1ccccc1c(=O)n2CCCNCCCCNCCCn1c2c(c3ccccc3c1=O)C(=O)c1ccccc1-2 [Compound 14h]
2. COc1cc2c3c(n(CCCn4ccnc4)c(=O)c2cc1OC)-c1ccccc1C3=O [Compound 5e]
3. O=C1c2ccccc2-c2c1c1ccccc1c(=O)n2CCNCCO [Compound S-2, oracin, reference compound]
4. Cl.NCCCCn1c2c(c3ccccc3c1=O)C(=O)c1ccccc1-2 [Compound 5an]
5. O=C1c2ccccc2-c2c1c1ccccc1c(=O)n2CCN1CCOCC1 [Compound 5j]
6. CC(C)(C)OC(=O)NCCCCCCCCCCCCn1c2c(c3ccccc3c1=O)C(=O)c1ccccc1-2 [Compound 5ak]

output:
0.525 µM
< 0.01 µM
1.62 µM
0.08 µM
> 100 µM
32.4 µM

// for each compound in input: emit GI50
1. O=C1c2ccccc2-c2c1c1ccc([N+](=O)[O-])cc1c(=O)n2CCCn1ccnc1 [Compound 5f]
2. COc1ccc2c(c1)C(=O)c1c-2n(CCCn2ccnc2)c(=O)c2ccccc12 [Compound 5bs]
3. COc1cc2c3c(n(CCCN4CCCC(O)C4)c(=O)c2cc1OC)-c1cc2c(cc1C3=O)OCO2.Cl (centres unmarked) [Compound 5s, Hydrochloride]
4. O=C1c2ccccc2-c2c1c1ccc([N+](=O)[O-])cc1c(=O)n2CCCN1CCOCC1 [Compound 5bi]

output:
["0.19 µM", "0.056 µM", "< 0.005 µM", "0.021 µM"]

Answer for every listed entry: what is its GI50? The entries follow.
1. O=C(O)C(F)(F)F.O=C(O)C(F)(F)F.O=C1c2ccccc2-c2c1c1ccccc1c(=O)n2CCCN1CCN(CCCn2c3c(c4ccccc4c2=O)C(=O)c2ccccc2-3)CC1 [Compound 14f]
2. COc1ccc2c(c1)C(=O)c1c-2n(CCCN2CCOCC2)c(=O)c2ccccc12 [Compound 5bk]
3. O=C(O)C(F)(F)F.O=C(O)C(F)(F)F.O=C1c2ccccc2-c2c1c1ccccc1c(=O)n2CCCNCCNCCCn1c2c(c3ccccc3c1=O)C(=O)c1ccccc1-2 [Compound 14e]
4. [N-]=[N+]=NCCCn1c2c(c3ccccc3c1=O)C(=O)c1ccccc1-2 [Compound 5bh]
5. COc1cc2c3c(n(CCCn4cncn4)c(=O)c2cc1OC)-c1cc2c(cc1C3=O)OCO2.Cl [Compound 5n, Hydrochloride]

output:
12.9 µM
1.41 µM
< 0.01 µM
7.59 µM
0.079 µM

// data source = patent US9796753B2
